# System: SK-MEL-5 melanoma
# Method Description: NCI-60 one-dose screen, 48 h (100 = growth as untreated, 0 = no growth, -100 = all killed)
# Details: 10 µM unless noted
About 83,000 compounds went through this panel and 20% of them were active in at least one assay; those are over-represented in the sample as a whole.
Value Type: growth (%)
Entry rule: numbers only, all in %.

Please review the entries below; each comes with its answer.
CCN1CCN(c2cc(C(=O)Nc3nc(-c4cc(OC)c(OC)c(OC)c4)cs3)cc(C(F)(F)F)c2)CC1 = 53.7
C=C(C)[C@@H]1CC[C@]2(C(=O)N3CCN(C)CC3)CC[C@]3(C)[C@H](CC[C@@H]4[C@@]5(C)CC(=C/c6ccncc6)/C(=N/O)C(C)(C)[C@@H]5CC[C@]43C)[C@@H]12 = 59.9
CC1(C)CC2=C3C=C[C@@H]4[C@@]5(C)CCC(=O)C(C)(C)[C@@H]5CC[C@@]4(C)[C@]3(C)CC[C@@]2(C(=O)O)CC1=O = 55.2
Cn1cc(-c2nonc2-c2c[nH]c3ccc(Br)cc23)c2cc(Br)ccc21 = 70.3

Would you kindly look at the next entry?
Task: Field request: growth | item: O=CC1(C2(C=O)c3ccccc3-c3ccccc32)c2ccccc2-c2ccccc21
Output: -83.7
